Kindly state pIC50 for each of the entries shown.
- assay system: KRAS G12D (Homo sapiens (Human), UniProt P01116+P62937, G12D)
- Sequence (P01116-2 other isoform, or with tags, fused parts or gaps G12D): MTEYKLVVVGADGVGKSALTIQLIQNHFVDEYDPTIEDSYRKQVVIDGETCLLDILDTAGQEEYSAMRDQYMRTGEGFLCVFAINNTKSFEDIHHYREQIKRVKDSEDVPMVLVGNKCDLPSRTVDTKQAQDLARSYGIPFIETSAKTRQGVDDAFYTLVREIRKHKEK
- Sequence (P62937 whole entry): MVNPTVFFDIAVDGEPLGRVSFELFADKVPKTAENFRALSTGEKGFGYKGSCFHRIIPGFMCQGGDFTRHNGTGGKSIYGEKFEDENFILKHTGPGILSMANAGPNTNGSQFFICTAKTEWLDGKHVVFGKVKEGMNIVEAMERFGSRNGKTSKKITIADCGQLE
- assay info: Ras-Raf (BRAF RBD) disruption / FRET / MOA assay, KRAS G12D
- Type: biochemical
- settings: Ras-Raf disruption/FRET/MOA assay; class symbols; read-out: KRAS G12D FRET data IC50
pIC50: −log10 of the molar value.

Per the records, this compound ( C=CC(=O)N1CC[C@H](C(=O)N(C)[C@H](C(=O)N[C@H]2Cc3ncc(n3C)-c3ccc4c(c3)c(c(-c3cccnc3[C@H](C)OC)n4CC)CC(C)(C)COC(=O)[C@@H]3CCCN(N3)C2=O)C(C)C)C1 (atropisomer, axis not shown) ) has pIC50 equal to < 5.00

Provide each entry's pIC50 from the list below.
1. C=CC(=O)N1CC[C@H](C(=O)N(C)[C@H](C(=O)N[C@H]2Cc3cc(O)cc(c3)-c3ccc4c(c3)c(c(-c3ccc(C5CCN(C)CC5)nc3)n4CC)CC(C)(C)COC(=O)[C@@H]3CCCN(N3)C2=O)C(C)C)C1
2. C=CC(=O)N1CC[C@H](C(=O)N(C)[C@H](C(=O)N[C@H]2Cc3cccc(c3)-c3ccc4c(c3)c(c(-c3cccnc3[C@H](C)OC)n4CC)CC(C)(C)COC(=O)[C@@H]3CCCN(N3)C2=O)C2CC2)C1 (atropisomer, axis not shown)
3. C=CC(=O)N1CCO[C@H]2CCN(C(=O)N(C)[C@H](C(=O)N[C@H]3Cc4nc(cs4)-c4ccc5c(c4)c(c(-c4cccnc4[C@H](C)OC)n5CC)CC(C)(C)COC(=O)[C@@H]4CCCN(N4)C3=O)C(C)C)C[C@H]21 (atropisomer, axis not shown)

< 5.00
< 5.00
5.00 to 6.00
